- Experiment Summary: Selectivity index, ratio of CC50 for BALB/c mouse Splenocyte to IC50 for Immunosuppressive activity in BALB/c mouse Splenocyte assessed as inhibition of LPS-induced B-cell proliferation
- Format: toxicity
- Condition Description: splenocytes, read-out: Ratio CC50/IC50
Experimental Readout: selectivity ratio
Answer with the value's number alone.

Query: I am curious: what selectivity ratio value has been reported for C=C[C@H]1[C@H](O[C@@H]2O[C@H](CO)[C@@H](O)[C@H](O)[C@H]2O)OC=C(C(=O)OC)[C@H]1CC(=O)c1[nH]c2ccccc2c1CC(=O)NC ?
Result: 3.59

* * *

- Experiment Summary: Cytotoxicity in BALB/c mouse Splenocyte assessed as reduction in cell viability incubated for 48 hrs by CCK-8 assay
- Assay type: toxicity, cell-based
- Condition Description: splenocytes
# maps each entry to its CC50 at 48 h
# output: number + unit

- Molecule: "C=C[C@H]1[C@H](O[C@@H]2O[C@H](CO)[C@@H](O)[C@H](O)[C@H]2O)OC=C(C(=O)OC)[C@H]1CC(=O)c1[nH]c2ccccc2c1[C@H](OC)C(=O)NC"
  CC50 at 48 h: "208 µM"

Let us examine a further case.
Query: I am curious: what CC50 at 48 h value has been reported for C=C[C@H]1[C@H](O[C@@H]2O[C@H](CO)[C@@H](O)[C@H](O)[C@H]2O)OC=C(C(=O)OC)[C@H]1CC(=O)c1[nH]c2ccccc2c1CC(=O)NC ?
Result: 170 µM

* * *

# maps each entry to its selectivity ratio
- Experiment Summary: Selectivity index, ratio of CC50 for BALB/c mouse Splenocyte to IC50 for Immunosuppressive activity in BALB/c mouse Splenocyte assessed as inhibition of concanavalin A-induced T-cell proliferation
- Assay type: toxicity
- Condition Description: splenocytes, read-out: Ratio CC50/IC50

Query: I am curious: what selectivity ratio value has been reported for C=C[C@H]1[C@H](O[C@@H]2O[C@H](CO)[C@@H](O)[C@H](O)[C@H]2O)OC=C(C(=O)OC)[C@H]1CC(=O)c1[nH]c2ccccc2c1CC(=O)NC ?
Result: < 0.85

Query: I am curious: what selectivity ratio value has been reported for C=C[C@H]1[C@H](O[C@@H]2O[C@H](CO)[C@@H](O)[C@H](O)[C@H]2O)OC=C(C(=O)OC)[C@H]1CC(=O)c1[nH]c2ccccc2c1[C@H](OC)C(=O)NC ?
Result: < 1.04
